Measured log10 minimum inhibitory concentration, listed per entry.
Tested on: Burkholderia contaminans ISS isolate s56
method: minimum inhibitory concentration (MIC)
experimentalParameters: incubation time: 18 h
Short version: log10 scale, minimum inhibitory concentration, µg/mL.

Solved entries:
chemicalSmiles | log10 minimum inhibitory concentration
C[C@H]1COc2c(N3CCN(C)CC3)c(F)cc3c(=O)c(C(=O)O)cn1c23 | -0.30
COc1cc(Cc2cnc(N)nc2N)cc(OC)c1OC.Cc1cc(NS(=O)(=O)c2ccc(N)cc2)no1 | 1.00
C[C@@H](O)[C@H]1C(=O)N2C(C(=O)O)=C(S[C@@H]3CN[C@H](C(=O)N(C)C)C3)[C@H](C)[C@H]12 | 0.70
CC(C)(O/N=C(\C(=O)N[C@@H]1C(=O)N2C(C(=O)[O-])=C(C[n+]3ccccc3)CS[C@H]12)c1csc(N)n1)C(=O)O | 0.90
CN(C)c1ccc(O)c2c1C[C@H]1C[C@H]3[C@H](N(C)C)C(O)=C(C(N)=O)C(=O)[C@@]3(O)C(O)=C1C2=O | 0.40

Input O=C(N[C@H](CO)[C@H](O)c1ccc([N+](=O)[O-])cc1)C(Cl)Cl . Output log10 minimum inhibitory concentration: 0.80

----------
Tested on: Burkholderia contaminans ISS isolate s53
method: minimum inhibitory concentration (MIC)
experimentalParameters: incubation time: 18 h
readoutName: minimum inhibitory concentration (µg/mL)
Output spec: scalar in µg/mL, unitless text.

chemicalSmiles | minimum inhibitory concentration / µg/mL
COc1cc(Cc2cnc(N)nc2N)cc(OC)c1OC.Cc1cc(NS(=O)(=O)c2ccc(N)cc2)no1 | 8

Input C[C@@H](O)[C@H]1C(=O)N2C(C(=O)O)=C(S[C@@H]3CN[C@H](C(=O)N(C)C)C3)[C@H](C)[C@H]12 . Output minimum inhibitory concentration: 4

Input O=C(N[C@H](CO)[C@H](O)c1ccc([N+](=O)[O-])cc1)C(Cl)Cl . Output minimum inhibitory concentration: 8

Input CN(C)c1ccc(O)c2c1C[C@H]1C[C@H]3[C@H](N(C)C)C(O)=C(C(N)=O)C(=O)[C@@]3(O)C(O)=C1C2=O . Output minimum inhibitory concentration: 2

Input C[C@H]1COc2c(N3CCN(C)CC3)c(F)cc3c(=O)c(C(=O)O)cn1c23 . Output minimum inhibitory concentration: 0.5

Input CC(C)(O/N=C(\C(=O)N[C@@H]1C(=O)N2C(C(=O)[O-])=C(C[n+]3ccccc3)CS[C@H]12)c1csc(N)n1)C(=O)O . Output minimum inhibitory concentration: 8

----------
Test system: Burkholderia cepacia ISS isolate s57
method: minimum inhibitory concentration (MIC)
experimentalParameters: incubation time: 18 h
readoutName: minimum inhibitory concentration (µg/mL)
Output spec: scalar in µg/mL, unitless text.

Solved entries:
chemicalSmiles | targetOrSystem | numericResult
O=C(N[C@H](CO)[C@H](O)c1ccc([N+](=O)[O-])cc1)C(Cl)Cl | Burkholderia cepacia ISS isolate s57 | 8
CN(C)c1ccc(O)c2c1C[C@H]1C[C@H]3[C@H](N(C)C)C(O)=C(C(N)=O)C(=O)[C@@]3(O)C(O)=C1C2=O | Burkholderia cepacia ISS isolate s57 | 2
CC(C)(O/N=C(\C(=O)N[C@@H]1C(=O)N2C(C(=O)[O-])=C(C[n+]3ccccc3)CS[C@H]12)c1csc(N)n1)C(=O)O | Burkholderia cepacia ISS isolate s57 | 3.17

Proceeding to the next molecule to report its minimum inhibitory concentration.
Input C[C@@H](O)[C@H]1C(=O)N2C(C(=O)O)=C(S[C@@H]3CN[C@H](C(=O)N(C)C)C3)[C@H](C)[C@H]12 . Output minimum inhibitory concentration: 5.04

----------
Tested on: Burkholderia cepacia ISS isolate s22
method: minimum inhibitory concentration (MIC)
experimentalParameters: incubation time: 18 h
Rule: T for minimum inhibitory concentration not less than 7 µg/mL, F for anything less.

Solved entries:
chemicalSmiles | category
C[C@@H](O)[C@H]1C(=O)N2C(C(=O)O)=C(S[C@@H]3CN[C@H](C(=O)N(C)C)C3)[C@H](C)[C@H]12 | F
CO/N=C(\C(=O)N[C@@H]1C(=O)N2C(C(=O)O)=C(COC(C)=O)CS[C@H]12)c1csc(N)n1 | T
C[C@H]1COc2c(N3CCN(C)CC3)c(F)cc3c(=O)c(C(=O)O)cn1c23 | T
CC(C)(O/N=C(\C(=O)N[C@@H]1C(=O)N2C(C(=O)[O-])=C(C[n+]3ccccc3)CS[C@H]12)c1csc(N)n1)C(=O)O | F
O=C(N[C@H](CO)[C@H](O)c1ccc([N+](=O)[O-])cc1)C(Cl)Cl | T

Evaluate CN(C)c1ccc(O)c2c1C[C@H]1C[C@H]3[C@H](N(C)C)C(O)=C(C(N)=O)C(=O)[C@@]3(O)C(O)=C1C2=O : minimum inhibitory concentration at minimum 7 µg/mL?
F

Evaluate COc1cc(Cc2cnc(N)nc2N)cc(OC)c1OC.Cc1cc(NS(=O)(=O)c2ccc(N)cc2)no1 : minimum inhibitory concentration at minimum 7 µg/mL?
T

----------
Tested on: Burkholderia cepacia ISS isolate s20
method: minimum inhibitory concentration (MIC)
experimentalParameters: incubation time: 18 h
Measured minimum inhibitory concentration, listed per entry.
Output spec: scalar in µg/mL, unitless text.

Solved entries:
chemicalSmiles | numericResult
CC(C)(O/N=C(\C(=O)N[C@@H]1C(=O)N2C(C(=O)[O-])=C(C[n+]3ccccc3)CS[C@H]12)c1csc(N)n1)C(=O)O | 4
CN(C)c1ccc(O)c2c1C[C@H]1C[C@H]3[C@H](N(C)C)C(O)=C(C(N)=O)C(=O)[C@@]3(O)C(O)=C1C2=O | 6.35

Proceeding to the next compound to report its minimum inhibitory concentration.
Input CO/N=C(\C(=O)N[C@@H]1C(=O)N2C(C(=O)O)=C(COC(C)=O)CS[C@H]12)c1csc(N)n1 . Output minimum inhibitory concentration: 20.2

----------
Tested on: Burkholderia cepacia ISS isolate s57
method: minimum inhibitory concentration (MIC)
experimentalParameters: incubation time: 18 h
readoutName: minimum inhibitory concentration (µg/mL)
Output spec: scalar in µg/mL, unitless text.

Solved entries:
compound | targetOrSystem | numericResult
C[C@H]1COc2c(N3CCN(C)CC3)c(F)cc3c(=O)c(C(=O)O)cn1c23 [levofloxacin] | Burkholderia cepacia ISS isolate s57 | 0.63
CO/N=C(\C(=O)N[C@@H]1C(=O)N2C(C(=O)O)=C(COC(C)=O)CS[C@H]12)c1csc(N)n1 [cefotaxime] | Burkholderia cepacia ISS isolate s57 | 11.3

Proceeding to the next compound to report its minimum inhibitory concentration.
Input COc1cc(Cc2cnc(N)nc2N)cc(OC)c1OC.Cc1cc(NS(=O)(=O)c2ccc(N)cc2)no1 [trimethoprim/sulfamethoxazole] . Output minimum inhibitory concentration: 16

----------
System: Burkholderia cepacia ISS isolate s20
method: minimum inhibitory concentration (MIC)
experimentalParameters: incubation time: 18 h
Measured minimum inhibitory concentration, listed per entry.
Output spec: scalar in µg/mL, unitless text.

Solved entries:
chemicalSmiles | targetOrSystem | numericResult
C[C@@H](O)[C@H]1C(=O)N2C(C(=O)O)=C(S[C@@H]3CN[C@H](C(=O)N(C)C)C3)[C@H](C)[C@H]12 | Burkholderia cepacia ISS isolate s20 | 12.7
O=C(N[C@H](CO)[C@H](O)c1ccc([N+](=O)[O-])cc1)C(Cl)Cl | Burkholderia cepacia ISS isolate s20 | 11.7

Proceeding to the next compound to report its minimum inhibitory concentration.
Input COc1cc(Cc2cnc(N)nc2N)cc(OC)c1OC.Cc1cc(NS(=O)(=O)c2ccc(N)cc2)no1 . Output minimum inhibitory concentration: 25.4
